# IC50 annotations
Biological target: hA1 (Homo sapiens (Human), UniProt P30542)
Sequence (P30542 whole entry): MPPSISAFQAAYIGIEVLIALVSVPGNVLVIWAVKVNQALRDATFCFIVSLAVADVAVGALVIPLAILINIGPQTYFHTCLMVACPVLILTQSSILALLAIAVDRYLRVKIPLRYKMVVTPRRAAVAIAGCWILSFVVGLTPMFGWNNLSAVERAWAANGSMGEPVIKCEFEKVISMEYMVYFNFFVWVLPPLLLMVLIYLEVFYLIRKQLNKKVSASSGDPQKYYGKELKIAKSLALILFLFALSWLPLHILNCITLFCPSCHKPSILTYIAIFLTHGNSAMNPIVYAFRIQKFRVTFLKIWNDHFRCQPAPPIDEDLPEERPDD
Assay: FLIPR inhibition assay in hADORA1/CHO (hA1 expressing) cells
Type: cell-based
Conditions: cAMP & FLIPR IC50 (nM) hA1, hADORA1/CHO cells, FLIPR calcium, adenosine stimulation
Number in nM, nothing else.

Nc1nc(-c2ccc(F)cc2)c(-c2ccc3nccn3c2)c2nc(Cc3ncccc3OC(F)F)nn12 [Example 73]; 11

Proceed to the following item.
query: Dear colleague, I am looking for the recorded IC50 of the following molecule: Nc1nc(-c2ncco2)c(-c2ccc3nccn3c2)c2nc(Cc3ncccc3OC(F)F)nn12 [Example 74]
result: 11

----------
# IC50 annotations
Biological target: hA1 (Homo sapiens (Human))
Test: FLIPR inhibition assay in hADORA1/CHO (hA1 expressing) cells
Format: cell-based
Settings: hADORA1/CHO cells, FLIPR calcium, adenosine stimulation; read-out: cAMP & FLIPR IC50 (nM) hA1
Reply with a number, then the unit it belongs to.

Cc1cnc2ccc(-c3c(N4CCC4)nc(N)n4nc(Cc5ncccc5F)nc34)cn12 [Example 119]; 48.6 nM
Nc1nc(-c2ccc(F)cc2)c(-c2ccc3ncccc3c2)c2nc(Cc3ncccc3F)nn12 [Example 89]; 132 nM
Cn1cnc2ccc(-c3c(-c4ccc(F)cc4)nc(N)n4nc(Cc5ncccc5F)nc34)cc21 [Example 69]; 22 nM

Proceed to the following item.
query: Dear colleague, I am looking for the recorded IC50 of the following compound: Cc1cc(-c2c(-c3ccc(F)cc3)nc(N)n3nc(Cc4cccc(N(C)C)n4)nc23)ccn1 [Example 17]
result: 22 nM

----------
Target: hA2b (Homo sapiens (Human), UniProt P29275)
Sequence (P29275 whole entry): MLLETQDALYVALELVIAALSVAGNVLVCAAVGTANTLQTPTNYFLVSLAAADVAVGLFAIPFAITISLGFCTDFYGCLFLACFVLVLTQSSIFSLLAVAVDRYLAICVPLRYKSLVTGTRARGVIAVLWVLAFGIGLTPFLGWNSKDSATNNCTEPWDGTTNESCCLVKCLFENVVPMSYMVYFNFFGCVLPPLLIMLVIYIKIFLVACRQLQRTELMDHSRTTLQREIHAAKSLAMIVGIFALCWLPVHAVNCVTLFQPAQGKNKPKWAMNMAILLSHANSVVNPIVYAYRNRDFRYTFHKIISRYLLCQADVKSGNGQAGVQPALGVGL
Assay: cAMP inhibition assay in hA2b/CHO cells
Format: cell-based
Details: adenosine stimulation, read-out: cAMP & FLIPR IC50 (nM) hA2b
Labelling field: enter Condition met if recorded IC50 is less than 400 nM. Enter Condition not met if it equals or exceeds that cut-off.

Reference set (5 entries):
Cn1cc(-c2c(-c3ccc(F)cc3)nc(N)n3nc(Cc4ncc(F)cc4F)nc23)ccc1=O; Condition not met
Cc1cnc2ccc(-c3c(-c4ccc(F)cc4)nc(N)n4nc(CC5CCOC5)nc34)cn12 (single isomer, unassigned; isomer 2) [Example 105-2]; Condition met
Nc1nc(-c2ncco2)c(-c2ccc3nccn3c2)c2nc(Cc3ncccc3F)nn12; Condition met
Cn1nc(-c2c(-c3ccc(F)cc3)nc(N)n3nc(Cc4ncccc4F)nc23)ccc1=O; Condition met
Nc1nc(-c2ccc(F)cc2)c(-c2ccnnc2)c2nc(Cc3c(F)cccc3F)nn12; Condition met

Attention now turns to another entry.
query: is_below(IC50, 400 nM) for Cc1cc(-c2c(-c3ccc(F)cc3)nc(N)n3nc(Cc4cccc(Cl)n4)nc23)ccn1 ?
result: Condition not met

----------
Target: hA2a (Homo sapiens (Human), UniProt P29274)
Sequence (P29274 whole entry): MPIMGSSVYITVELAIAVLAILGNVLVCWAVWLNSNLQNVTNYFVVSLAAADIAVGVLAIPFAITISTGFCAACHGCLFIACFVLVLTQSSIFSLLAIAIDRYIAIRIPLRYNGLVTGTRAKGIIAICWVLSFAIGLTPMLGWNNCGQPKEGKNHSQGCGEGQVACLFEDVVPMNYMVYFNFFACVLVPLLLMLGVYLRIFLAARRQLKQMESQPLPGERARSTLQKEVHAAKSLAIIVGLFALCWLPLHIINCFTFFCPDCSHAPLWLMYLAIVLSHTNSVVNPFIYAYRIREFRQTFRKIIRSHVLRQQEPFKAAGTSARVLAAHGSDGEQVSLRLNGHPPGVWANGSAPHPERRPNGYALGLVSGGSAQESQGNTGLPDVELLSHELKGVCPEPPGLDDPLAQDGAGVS
Test: Radioligand binding to hA2a membrane ([3H]-CGS21680)
Settings: [3H]-CGS21680, 90 min at 25° C., read-out: Binding Affinity (IC50 nM) hA2a
# IC50 annotations
Number in nM, nothing else.

Recorded results for 2 molecules are shown here.
Cn1cc(-c2c(-c3ccc(F)cc3)nc(N)n3nc(Cc4c(F)cccc4F)nc23)ccc1=O [Example 9]; 2.1
Nc1nc(-c2ncco2)c(-c2ccnc(OC(F)F)c2)c2nc(Cc3ncccc3F)nn12 [Example 86]; 8.3

query: Dear colleague, I am looking for the recorded IC50 of the following molecule: COc1ccc(-c2nc(N)n3nc(Cc4ncccc4F)nc3c2-c2ccc(=O)n(C)c2)cc1 [Example 61]
result: 4.2

query: Moving on to Cn1cc(-c2c(-n3nccn3)nc(N)n3nc(Cc4c(F)cccc4F)nc23)ccc1=O [Example 25]
result: 1.4

query: Moving on to Nc1cccc(Cc2nc3c(-c4ccc5nccn5c4)c(-c4ccc(F)cc4)nc(N)n3n2)n1 [Example 37]
result: 6.3

query: Moving on to COc1cccc(-c2nc(N)n3nc(Cc4ncccc4F)nc3c2-c2ccc(=O)n(C)c2)c1 [Example 77]
result: 3.6

query: Moving on to Nc1nc(-c2ccc(F)cc2)c(-c2ccc3nccn3c2)c2nc(Cc3ncccc3F)nn12 [Example 32]
result: 5.5

query: Moving on to Cc1c(-c2c(-c3ccc(F)cc3)nc(N)n3nc(Cc4ncccc4F)nc23)ccc(=O)n1C [Example 66]
result: 7.2
